Biological target: T1, RBFOX1 RRM RbFoxmut (Fox-RRM*) (Homo sapiens, UniProt Q9NWB1 109-208, R118D;E147R;N151S;E152T)
T1 sequence: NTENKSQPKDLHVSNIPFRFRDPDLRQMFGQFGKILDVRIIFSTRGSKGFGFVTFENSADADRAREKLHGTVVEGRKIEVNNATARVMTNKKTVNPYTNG
Experiment: EMSA; HiTS-Eq, 1 nM pool, 10 min; buffer printed only for the single-RNA assays: 10 mM Tris pH 7.5, 150 mM NaCl, 3.4 mM EDTA, 0.001% NP-40, 30 C
Conditions: tags: His6 N-terminal (pET28a); label: 5' 32P
Over roughly 16,000 sequences, “ka relative to ugcaugu” has its median near 0.096; the highest 2% begin near 0.35. The sample as a whole holds a higher share of the highest values than the screen did.
So I've got a bunch of binders here, and I need their binding signal values.

The binder CCUGGAG (DNA:RNA) RNA: GGGAGACCGGAAUUCAGAUUGUCCCCUGGAGUUAAAUCCCGUCGUAGCCACCA DNA 1: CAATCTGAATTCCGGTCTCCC DNA 2: TGGTGGCTACGACGGGATT showed binding signal equal to 0.113 KA relative to UGCAUGU

Record summary for CAGCCAU (DNA:RNA) RNA: GGGAGACCGGAAUUCAGAUUGUCCCAGCCAUUUAAAUCCCGUCGUAGCCACCA DNA 1: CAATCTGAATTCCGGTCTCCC DNA 2: TGGTGGCTACGACGGGATT : reported binding signal = 0.0919 KA relative to UGCAUGU

Form: binder = GGGACUG (DNA:RNA) RNA: GGGAGACCGGAAUUCAGAUUGUCCGGGACUGUUAAAUCCCGUCGUAGCCACCA DNA 1: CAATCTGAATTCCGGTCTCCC DNA 2: TGGTGGCTACGACGGGATT ; binding signal = 0.266 KA relative to UGCAUGU

binding signal in this record for CUUUAUC (DNA:RNA) RNA: GGGAGACCGGAAUUCAGAUUGUCCCUUUAUCUUAAAUCCCGUCGUAGCCACCA DNA 1: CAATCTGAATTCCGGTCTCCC DNA 2: TGGTGGCTACGACGGGATT : 0.0598 KA relative to UGCAUGU

Each recorded value in this set is attributed to paper PMC9911399.
